- Test system: BT20 Cell
- measurement_protocol: Cancer Cell Lysate Total L-Glutamate Assay
- Format: cell-based
- measurement_parameters: Homo sapiens, BT-20, 2 h, total L-glutamate in cell lysate, BT20 cells, 2 hour incubation with test compound
- Method: Cancer Cell Lysate Total L-Glutamate Assay Cancer cell lines (BT20, HCT116, SKOV3, HCC70, SUM149, MDA-MB-231, etc.) were plated in 96 well plates and were used for the total L-glutamate assay when the monolayer was ca. 80% confluent. […] Total L-glutamate (L-glutamic acid) in the cell lysis supernatant was detected using glutamate oxidase, horseradish peroxidase and Amplex Red reagent (10-acetyl-3,7-dihydroxy phenoxazine, Invitrogen # A22177). […]
Measured IC50 values are reported for all entries that follow.
test_readout: IC50 (nM)

{"compound": "Nc1nnc(C[C@@H]2CC[C@H](c3nnc(N)s3)C2)s1 (single isomer, unassigned)", "qualifier_symbol": "=", "experimental_result": 4580}
{"compound": "O=C(CCn1cccn1)Nc1nnc(C[C@H]2CC[C@@H](c3nnc(NC(=O)Cc4ccccn4)s3)C2)s1 (racemic)", "qualifier_symbol": "=", "experimental_result": 4.2}
{"compound": "CC(=O)Nc1nnc(C2CCC(Cc3nnc(N)s3)C2)s1 (racemic)", "qualifier_symbol": "=", "experimental_result": 2370}
{"compound": "CC(=O)Nc1nnc(C2CC[C@H](Cc3nnc(NC(=O)c4ccccc4)s3)C2)s1 (single isomer, unassigned)", "qualifier_symbol": ">", "experimental_result": 50000}
{"compound": "O=C(Cc1ccccn1)Nc1ccc(CC2CCC(c3nnc(NC(=O)Cc4ccccn4)s3)C2)nn1 (racemic)", "qualifier_symbol": "=", "experimental_result": 0.2}
{"compound": "CC(=O)Nc1nnc(C2CC[C@@H](Cc3nnc(NC(=O)c4ccccc4)s3)C2)s1 (single isomer, unassigned)", "qualifier_symbol": "=", "experimental_result": 23.8}
{"compound": "C[C@H](C(=O)Nc1nnc(C[C@@H]2CC[C@H](c3nnc(NC(=O)[C@@H](C)c4cccnc4)s3)C2)s1)c1cccnc1 (single isomer, unassigned)", "qualifier_symbol": "=", "experimental_result": 7}
